Target or system: Full-length glucokinase (beta cell isoform) (Homo sapiens, UniProt P35557)
Construct: Full-length glucokinase (beta cell isoform) was His-tagged at N-terminus; His tag (N); made in house
Sequence (P35557 1-465): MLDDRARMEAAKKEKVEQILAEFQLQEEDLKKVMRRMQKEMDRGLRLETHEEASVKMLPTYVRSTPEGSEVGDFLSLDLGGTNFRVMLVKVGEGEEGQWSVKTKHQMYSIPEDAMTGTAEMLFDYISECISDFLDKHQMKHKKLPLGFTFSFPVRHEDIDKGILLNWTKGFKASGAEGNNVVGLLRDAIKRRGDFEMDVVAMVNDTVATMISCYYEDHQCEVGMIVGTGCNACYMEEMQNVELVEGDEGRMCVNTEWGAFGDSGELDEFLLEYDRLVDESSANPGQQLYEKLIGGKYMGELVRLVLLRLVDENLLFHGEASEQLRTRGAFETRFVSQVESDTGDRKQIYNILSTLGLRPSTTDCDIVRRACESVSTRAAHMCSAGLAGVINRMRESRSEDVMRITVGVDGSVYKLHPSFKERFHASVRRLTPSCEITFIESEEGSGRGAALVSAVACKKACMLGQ
Experimental protocol: Glucokinase biochemical assay (PK/LDH-coupled, NADH depletion at 340 nm): % activation, EC50, % max activation
Assay conditions: 5 mM glucose; fitted maximum activation; read-out: % Max Activation
Measure name: Emax (%)

Ask: Please report the recorded Emax for Cc1cc2c(Oc3ccc(S(=O)(=O)N4CCC4)cc3)cc(C(=O)Nc3ccccn3)cc2o1 [Example 296] .
Result: 77

A = Cn1ccc(NC(=O)c2cc(Oc3ccc(C(=O)NC4CCC4)c(F)c3)c3c(c2)OC(C)(C)C3)n1 [Example 74]
B = Cc1ccc(NC(=O)c2cc3c(c(Oc4ccc(S(C)(=O)=O)cc4)c2)CCO3)nc1 [Example 8]
Ask: Higher Emax between A and B ? Please respond with the label that marks your chosen entry.
Result: A

====

Target or system: Full-length glucokinase (beta cell isoform) (Homo sapiens, UniProt P35557)
Construct: Full-length glucokinase (beta cell isoform) was His-tagged at N-terminus; His tag (N); made in house
Experimental protocol: Glucokinase biochemical assay (PK/LDH-coupled, NADH depletion at 340 nm): % activation, EC50, % max activation
Assay conditions: 5 mM glucose, 1 mM ATP, room temperature; read-out: EC50
Measure name: EC50 (nM)

The following molecules have reported results that may help.
Ask: Recorded EC50 of Cn1ccc(NC(=O)c2cc(Oc3ccc(C(=O)N4CCCC4)nc3)c3c(c2)OC(C)(C)C3)n1 , please.
Result: 56

Ask: Query Cc1ccc(NC(=O)c2cc(Oc3ccc(S(=O)(=O)C4CC4)c(F)c3)c3c(c2)OC(C)(CO)C3)nc1 (single isomer, unassigned; (+)) next
Result: 290

Ask: Consider next the molecule Cn1ccc(NC(=O)c2cc(Oc3ccc(C(=O)N4CC(F)C4)nc3)c3c(c2)OC(C)(C)C3)n1 in the same way.
Result: 83

1 = CCN1Cc2c(Oc3ccc(S(C)(=O)=O)cc3)cc(C(=O)Nc3ccc(C)cn3)cc2C1=O
2 = CN(CC#N)C(=O)c1ccc(Oc2cc(C(=O)Nc3ccn(C)n3)cc3c2CC(C)(C)O3)cn1
Ask: Between the entries labelled 1 and 2 , which has a larger EC50 value on record? Kindly give the label for the entry you pick.
Result: 1
(1: 4500 nM, 2: 610 nM)

1 = Cc1ccc(NC(=O)c2cc(Oc3ccc(S(C)(=O)=O)cc3)c3c(c2)C(=O)N(C2CC2)C3)nc1
2 = Cn1ccc(NC(=O)c2cc(Oc3cnc(C(=O)N4CC(F)C4)c(F)c3)c3c(c2)OC(C)(C)C3)n1
Ask: Looking at recorded values for EC50, does 1 or 2 come in lower? Refer to your chosen item by its label in the answer.
Result: 2
(2: 121 nM, 1: 4500 nM)

1 = CNC(=O)c1c(F)cc(Oc2cc(C(=O)Nc3ccn(C)n3)cc3c2CC(C)(C)O3)cc1F
2 = Cc1ccc(NC(=O)c2cc(Oc3ccc(S(C)(=O)=O)cc3)c3c(c2)C(=O)N(C)C3)nc1
Ask: Which record shows the lower EC50: the first, 1 , or the second, 2 ? Please indicate the selected item by its label.
Result: 1
(1: 140 nM, 2: 6400 nM)
